meta.source: patent US7119115B2

- Test system: HDMEC cells (Human Dermal Microvascular Endothelial Cells)
- test-method-notes: Detachment of endothelial cells in vitro (test for determining the inhibition of vascularization)
- Assay type: cell-based
- experimental-parameters: Homo sapiens, Endothelial cell, 2 h, two hours of treatment, relative to control (untreated cells)
Reported values of inhibition at 1 µM for individual entries
quantity: inhibition at 1 µM (%)

> print(dat)
                                   molecule                               test.target  meas.value
1  O/N=C(\c1n[nH]c2c1C=CC(c1ccc(F)cc1)(c1ccc(F)cc1)C2)C1CC1 [Example 10-8A]  HDMEC cells (Human Dermal Microvascular Endothelial Cells)          17
2  CCOC(=O)c1n[nH]c2c1C=CC(c1ccccc1)(c1ccc(F)cc1)C2 (racemic) [Example 10-3A]  HDMEC cells (Human Dermal Microvascular Endothelial Cells)          16
3  O=C(Nc1n[nH]c2c1C=CC(c1ccccc1)(c1ccccc1)C2)c1ccccc1 [Example 7-4]  HDMEC cells (Human Dermal Microvascular Endothelial Cells)          18
4  O=C(c1n[nH]c2c1C=CC(c1ccccc1)(c1ccccc1)C2)C1CCC1 [Example 5-2]  HDMEC cells (Human Dermal Microvascular Endothelial Cells)          19
